Field: self-cleavage. Provide a value for each of the variants that follow.
B1: HDV Ribozyme (parent)
chain: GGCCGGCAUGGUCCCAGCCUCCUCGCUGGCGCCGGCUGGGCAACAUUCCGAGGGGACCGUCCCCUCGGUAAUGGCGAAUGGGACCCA

Variants of: B1
Experiment: self-cleavage, relative activity (ratio to wild type); higher = more cleavage; co-transcriptional
One number for each entry.

Known self-cleavage results, listed for orientation:
                           polymer_sequence  endpoint_value
0  GGCCGGCAUGGUCCCAGCCUCCUCGCUGGCGCCGGCUGGGAAACAUUGCGAGGGGACCGUCCCCUCGGUAAUGGCGAAUGGGACCCA [C41A C48G]           0.898
1  AGCCGGCAUGGUCCCAGCCUCCUCGCUGGCGCCGGCUAGGCAACAUUCCGAGGGGACCGUCCCCUCGGUAAUGGCGAAUGGGACCCA [G1A G38A]          0.0332
2  GGCCGGCAUGGUCCCAGCCUCCUCGCUGGCACCGGCUGGGCAACAUUCCGAGGGGACCGUCCCCUCGGUAAUGGCGAAUGGGACCCU [G31A A87U]           0.442
3  GGCCGGCAUGGUCCCAGCCUCCUCGCUGGCGCCGGCUUGGCAACAUUCCGAGGGGACCGUCCCCUCGGUAAUGGCGUAUGGGACCCA [G38U A77U]          0.0845
4  GGCCGUCAUGGUCCCAGCCUCCUCGCUGGCGCCGGCUGGGCAACAUUCCGAGGGGACCGUCCCCUCGGUAAUUGCGAAUGGGACCCA [G6U G73U]               0
5  GGCCGGCAUGGGCCCAGCCUCCUGGCUGGCGCCGGCUGGGCAACAUUCCGAGGGGACCGUCCCCUCGGUAAUGGCGAAUGGGACCCA [U12G C24G]           0.136
6  GGCCGGCAUGGUCCCAGCCUCCUCGCUAGCGCCGGCUGGGCAACAUUCCGAGGGGACCGUCCCCUCGGUAAUGGCGAAUGGGCCCCA [G28A A83C]          0.0875
7  GGCCGGCAUGGUCCCAGCCUCCUCGCUGGCGCAGGCUGGGCAACAUUCCGAGGGGACCGUCCCCUCGGUAAUCGCGAAUGGGACCCA [C33A G73C]           0.149

Hi! Can you tell me self-cleavage for each of these variants?
1. GGCCGGCAUGGUCCAAGCCUCCUCGCUGGCGCCGGCUGGGCAACAUUCCGAGGGGACCGUCCCCUCGGUAAUGGCGAAUGGGACCUA [C15A C86U]
2. GGCCGGCAUGGUCCCAGCCUGCUCGCUGGCGCCGGCUGGGCAAAAUUCCGAGGGGACCGUCCCCUCGGUAAUGGCGAAUGGGACCCA [C21G C44A]

1: 0.831; 2: 0

Can you give me self-cleavage for all of these, one by one?
1. GGCCGGGAUGGUCCCAGCCUCCUCGCUGGCGCCGGCUGGGCAACAUCCCGAGGGGACCGUCCCCUCGGUAAUGGCGAAUGGGACCCA [C7G U47C]
2. GGCCGGCAUGGUCCCAGCCUCCUCGCUGGCGCCGGCUGGGCAACAUUCCGAGGGGAUCGUCCCCUCGGUAAUCGCGAAUGGGACCCA [C57U G73C]

0.293
0.748

Report self-cleavage for every entry below.
1. GGCCGGCAUGGUCCCAGCCUCCUCGCUGGCGCCGGCUGGGCAACAUUUCGAGGGGACCGUCCCCUCGGUAAUGGCAAAUGGGACCCA [C48U G76A]
2. GGCCGGCAUGGUCCCAGCCUCCUCGCGGGCGCCGGCUGGGCAACAUUCCGAGGGCACCGUCCCCUCGGUAAUGGCGAAUGGGACCCA [U27G G55C]
3. GGCCGGCAUGGUCCCAGCCUCCUCGCUGGCGCCGGCUGGGCAACUUUCCGAGGGGACCGUCGCCUCGGUAAUGGCGAAUGGGACCCA [A45U C62G]
4. GGCCGGCAUGGUCCCAGCCUCCUCGCUGGCGCCGGCUGGGCAACAUUCCGAGGGGACCGACCCCUCGGUAAUGGCCAAUGGGACCCA [U60A G76C]
5. GGCCGGCAUGGUCCUAGCCUCCUCGCUGGCGCCGGCUGGGCAACAUUCCGAGGGGACCGUCCCCUCGGUAAGGGCGAAUGGGACCCA [C15U U72G]

1. 1.08
2. 0.779
3. 0.798
4. 0.973
5. 0.665

Below is a list of variants. For each, state its recorded self-cleavage.
1. GGCCGGCAUGGUCCCAGCCUCAUCGCUGGCGCCGGCUGGGCAACAUUCCGAGGGCACCGUCCCCUCGGUAAUGGCGAAUGGGACCCA [C22A G55C]
2. GGCCGGCAUGGUCCCAGCCUCCGCGCUGGCGCCGGCUGGGCAACCUUCCGAGGGGACCGUCCCCUCGGUAAUGGCGAAUGGGACCCA [U23G A45C]
3. CGCCGGCAUGGUCCCAGCCUCCUCGCUGGCGUCGGCUGGGCAACAUUCCGAGGGGACCGUCCCCUCGGUAAUGGCGAAUGGGACCCA [G1C C32U]
4. GGCCGGCAUGGUUCCAGCCUCCUCGCUGGCGCCGGCUGGGCAACAUUCCGAGGGGACCGUCCCCUCGGUAAUGGUGAAUGGGACCCA [C13U C75U]
5. GGCCGGCAUGGUCCCAGCCUCCUCGCUGGCGCCGGCUGGGCAACAUUCCGAGGGGACCGUCCCCUCGGUAAUGGCGUAUGGCACCCA [A77U G82C]
6. GGCCGGCAUGGUCCCAGCCUCCUCGCUAGCGCCGGCUGGGCAACAUUCCGAGAGGACCGUCCCCUCGGUAAUGGCGAAUGGGACCCA [G28A G53A]
7. GGCCGGCAUCGUCCCAGCCUCCUCGCUGGCGCCGGCUGGGCAACAUUCCGAGGGGACCGUCCCCUCGGUAAAGGCGAAUGGGACCCA [G10C U72A]
8. GGCCCGCAUGGUCCCAGCCUCCUCGCUGGCGCCGGCUGGGCAACAUUCCGAGGGGACCGUCCCCUCGGUAAUGGCGAAUGCGACCCA [G5C G81C]

1. 0.262
2. 0.151
3. 0.192
4. 0.0314
5. 0.208
6. 0.02
7. 0.415
8. 0
